# assay_explanation: Hydroxyapatite (HA) Binding Assay
# recorded_conditions: 10^−5 M analyte, 50 mM Tris-HCl pH 7.4, 1% DMSO; adjusted such that tetracycline = 100
assay_endpoint: Binding Index (binding to hydroxyapatite)
Please state the value as a number alone, without comment.

A selection of reference data follows.
Query CC12CCC3c4ccc(O)cc4CCC3C1CC[C@H]2OCCC(=O)NCCOCCOCC(=O)Nc1ccc(OCc2ccccc2)c(C(N)=O)c1O (stereo partly shown) [Formula 125] yields Binding Index (binding to hydroxyapatite) of 160

Query COc1ccc(NC(=O)COCCOCCNC(=O)CCOC2CCC3C4CCc5cc(O)ccc5C4CCC23C)c(O)c1C(N)=O (stereo not shown) [Formula 123] yields Binding Index (binding to hydroxyapatite) of 160

Query COc1ccc(NC(=O)CCC(=O)Nc2nnc(S(N)(=O)=O)s2)c(O)c1C(N)=O [Formula 35] yields Binding Index (binding to hydroxyapatite) of 20

Query COc1ccc(NC(=O)COCCOCCOCCNC(=O)CCO[C@@H]2CCC3C4CCc5cc(O)ccc5C4CCC32C)c(O)c1C(N)=O (stereo partly shown) [Formula 124] yields Binding Index (binding to hydroxyapatite) of 100

Query COc1cccc2c1C(=O)c1c(O)c3c(c(O)c1C2=O)C[C@@](O)(C(=O)CO)C[C@H]3OC1C[C@H](NC(=O)CCCC(=O)NCCOCCOCC(=O)Nc2ccc(OC)c(C(N)=O)c2O)[C@H](O)[C@H](C)O1 (stereo partly shown) [Formula 138] yields Binding Index (binding to hydroxyapatite) of 60

More entries:
Query COc1ccc(NC(=O)CCC(=O)OC2CCC3C4CCC5=CC(=O)CCC5(C)C4CCC23C)c(O)c1C(N)=O (stereo not shown) [Formula 33] yields Binding Index (binding to hydroxyapatite) of 140

Query COc1ccc(NC(=O)COCCOCCNC(=O)CCCC(CO[N+](=O)[O-])O[N+](=O)[O-])c(O)c1C(N)=O (stereo not shown) [Formula 130] yields Binding Index (binding to hydroxyapatite) of 130
